test: NCI Yeast Anticancer Drug Screen. Data for the mec2-1 strain (AID 157)
condition_info: S. cerevisiae mec2-1 strain, at 50.0 µM, stronger effect = higher value
Compounds without any hit were thinned out: in the full panel of roughly 79,000, 15% have a hit.
result_type: growth inhibition (%)
Numbers only, in %.

>>> value_observed("O=C(c1ccncc1)c1c(Cc2ccccc2)ccc2ccccc12")
-0.65
>>> value_observed("COc1cc(-c2ccccc2)c(OC)cc1CCl")
2.95
>>> value_observed("CCCCCCCCCSc1nc2ccccc2s1")
6.25
>>> value_observed("C/C(=N\\NC(=O)c1ccncc1)c1ccc(Cl)cc1Cl")
7.15
>>> value_observed("COC(=O)c1ccccc1N(C)C(=O)c1cc(OC)c(OC)c(OC)c1")
-37

Switching to the query record.
Tell me the measured growth inhibition of COC(=O)c1ccc(N=Nc2ncc(CC(NC(C)=O)C(=O)OC)[nH]2)cc1 (stereo unspecified) , please.
-46.9

----------
test: NCI Yeast Anticancer Drug Screen. Data for the sgs1 mgt1 strain (AID 161);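 further: 0% = growth of cultures given vehicle only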
condition_info: S. cerevisiae sgs1 mgt1 strain, at 50.0 µM, stronger effect = higher value
About 79,000 compounds went through this panel and 15% of them were active in at least one assay; those are over-represented in the sample as a whole.
result_type: growth inhibition (%)
Give bare numbers, in %.

>>> value_observed("Nc1cccc(N2N=C(C(=O)O)CC2=O)c1")
-40.9
>>> value_observed("OC(CC(c1ccccc1)c1cccc2ccccc12)(c1ccccc1)c1ccccc1 (configuration not stated)")
-14.6
>>> value_observed("COc1ccc2[nH]c3c4c(ccc3c2c1)C(=O)C=CC4=O")
12
>>> value_observed("Clc1cc(Cl)nc(Nc2ccc3c(c2)CCC3)n1")
-1.15

For each listed entry, give its growth inhibition.
1. Nc1n[n+]([O-])c2cc([N+](=O)[O-])ccc2[n+]1[O-]
2. NC1=NC(c2ccccc2)N=C(Nc2ccccc2)N1 (configuration not stated)
3. CC[N+](C)(CC)CCOC(C)=O

84.7
16.4
-5.95

Provide each entry's growth inhibition from the list below.
1. COC(=O)c1ccccc1Cl
2. COC(=O)/C(=C\c1ccc(N(CCC#N)CCC#N)cc1)NC(=O)c1cc([N+](=O)[O-])ccc1Cl

1. 9.05
2. -16.1

Go through the items and report each one's growth inhibition.
1. CCOCCC(=O)O
2. O=c1c2ccccc2[nH]c2c(O)c3c(=O)c4ccccc4[nH]c3cc12
3. O=C(NCc1ccccc1)C1CCN(Cc2c[nH]c3ccccc23)CC1

[-7, 3.9, 3.15]

----------
test: NCI Yeast Anticancer Drug Screen. Data for the sgs1 mgt1 strain (AID 161);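 further: 0% = growth of cultures given vehicle only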
condition_info: S. cerevisiae sgs1 mgt1 strain, at 50.0 µM, stronger effect = higher value
This is part of a sample that, as a whole, favours compounds with a hit. Of some 79,000 tested, about 15% had one in any assay.
result_type: growth inhibition (%)
Numbers only, in %.

// for each molecule below, give its growth inhibition
1. CC1(C)CC(=O)C(/C=N/C(N)=S)=C(O)C1
2. CC1=C(C(=O)OCCc2ccc([N+](=O)[O-])cc2)C(c2cccc([N+](=O)[O-])c2)C(C(=O)OC(C)C)=C(C)N1 (configuration not stated)

1: -13.8; 2: 12.8

Value sought for every listed molecule: growth inhibition.
1. COc1ccc(CCl)c(C)c1OC
2. NC(Cc1ccsc1)C(=O)O (configuration not stated)

18.9
-22.7

----------
Give growth inhibition for every item shown.
test: NCI Yeast Anticancer Drug Screen. Data for the mec2-1 strain (AID 157)
condition_info: S. cerevisiae mec2-1 strain, at 50.0 µM, stronger effect = higher value
The panel holds about 79,000 compounds, 15% with a hit somewhere; the sample as a whole holds those more often.
Answers are plain numbers, in %.

Look over these answered cases.
>>> value_observed("CC(=O)Nc1nc(C)c(CC/C=C/c2ccc([N+](=O)[O-])cc2)c(Cl)n1")
32.9
>>> value_observed("O=C1CSC2=NC3=C(COC/C3=C\\c3ccc(Br)cc3)C(c3ccc(Br)cc3)N12 (stereo unspecified)")
14.3
>>> value_observed("CC1CNC(=S)O1 (stereo unspecified)")
-15.5
>>> value_observed("CC1=CC(=O)c2ccc3c4ccccc4n(C)c3c2C1=O")
-35.1
>>> value_observed("CCCCCC[n+]1ccc(C(=O)c2ccccc2)cc1")
-5.8

Please look at the following compound next.
For `COc1ccccc1C1(CBr)OCCO1` , what is its reported growth inhibition?
-7.7

----------
Answer each item with its documented growth inhibition.
test: NCI Yeast Anticancer Drug Screen. Data for the mec2-1 strain (AID 157)
condition_info: S. cerevisiae mec2-1 strain, at 50.0 µM, stronger effect = higher value
The panel holds about 79,000 compounds, 15% with a hit somewhere; the sample as a whole holds those more often.
Give bare numbers, in %.

Examples from the recorded data:
>>> value_observed("CC(=O)c1ccc(N=NN(C)C)cc1")
1
>>> value_observed("S=C(N/N=C1\\CSCc2ccccc21)Nc1cc(Cl)ccc1Cl")
-4.45
>>> value_observed("Nc1ccc(C(=O)N/C(=C\\c2cccc([N+](=O)[O-])c2)c2nc3ccc(Cl)cc3[nH]2)cc1")
-21.4
>>> value_observed("COC(=O)/C=C(\\C(=O)OC)C1=C(N2CCCC2)CC(C)(C)CC1=O")
-14.9
>>> value_observed("c1ccc2c[n+](Cc3ccc4ccccc4n3)ccc2c1")
-4.3

Working through the 4 molecules below one at a time, give growth inhibition for each.
1. CCOC(=O)C(C)(C(=O)OCC)C(C)Cc1cccc2ccccc12 (stereo not given)
2. COc1cc(Cl)ccc1C
3. CCOC(=O)c1nnn(Cc2ccccc2)c1N
4. O=S(=O)(O)CCCC1S(=O)(=O)OCCOS1(=O)=O

1. 0.95
2. -1.75
3. -7.35
4. -21.8

// input: 4 molecules below; output: growth inhibition for each
1. CCCC(=O)Oc1ccc(CC)cc1
2. C(=N\OCCc1ccccc1)/c1ccccn1
3. CCOCC/C(=N\Nc1ccc([N+](=O)[O-])cc1[N+](=O)[O-])c1ccccc1
4. COC1(C)CNc2ccccc2C(=O)N1 (stereo not given)

[15.4, -33.1, 5.85, -7.4]

# map each molecule to its growth inhibition
1. Cc1[nH]nc2c1NC(=O)OC2
2. O=C(CSc1nnc(Cc2ccccc2)o1)Nc1ccccc1

1. -1.1
2. 0.05

----------
test: NCI Yeast Anticancer Drug Screen. Data for the cln2 rad14 strain (AID 165);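 further: 0% = growth equal to vehicle treated cultures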
condition_info: S. cerevisiae cln2 rad14 strain, at 50.0 µM, stronger effect = higher value
The panel holds about 79,000 compounds, 15% with a hit somewhere; the sample as a whole holds those more often.
result_type: growth inhibition (%)
One number for each entry, in %.

Example compounds with recorded growth inhibition:
>>> value_observed("CCOC(=O)/C(C#N)=C/c1cc(Br)c(O)c(OC)c1")
-0.8
>>> value_observed("COC(=O)c1nc(=S)[nH]c(C(=O)OC)c1C(=O)c1ccc(OC)cc1")
-7.9
>>> value_observed("CSC1=Nc2ccccc2N=C(c2ccccc2)C1")
9.05
>>> value_observed("O=C(Nc1ccc(Cl)c(Cl)c1)C(Cl)Cl")
30.2
>>> value_observed("O=[N+]([O-])c1ccc(N/N=C/C2CCCCCC2)c([N+](=O)[O-])c1")
-147
>>> value_observed("COc1ccc2nc3cccc([N+](=O)[O-])c3c(NCCC(=O)O)c2c1")
26.8
>>> value_observed("CCCCCC(=O)/C=C/CC(CCCCCCC#N)C(CC(OC)OC)[N+](=O)[O-] (configuration not stated)")
14.3
>>> value_observed("CS/C(=C\\c1ccc2ccccc2[n+]1C)N1CCN(CCCO)CC1")
-20.6

Can you give me growth inhibition for all of these, one by one?
1. COc1ccc(/C=N/Nc2nc3ccccc3s2)cc1
2. CC(=O)Nc1ccc(OC(C)=O)cc1
3. C=C(CBr)CCCOCc1ccccc1
4. CC(C)(Cc1ccc([N+](=O)[O-])cc1)[N+](=O)[O-]

-41.4
20.5
2.1
-7.55

----------
test: NCI Yeast Anticancer Drug Screen. Data for the rad50 strain (AID 155);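 further: 0% = growth of vehicle-only cultures of the same strain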
condition_info: S. cerevisiae rad50 strain growth inhibition; at 50.0 µM; stronger effect = higher value
The panel holds about 79,000 compounds, 15% with a hit somewhere; the sample as a whole holds those more often. Where a SMILES comes first, the peptide text is derived from it. Bridges are numbered along the chain shown (N, C = ends). Roman numbers before positions name the chains, in order.
result_type: growth inhibition (%)
Answers are plain numbers, in %.

>>> value_observed("O=C(O)c1c2c(nc3ccccc13)Cc1ccccc1-2")
1
>>> value_observed("CCN(CC)CCOC(=O)c1noc2cc([N+](=O)[O-])ccc12")
0.7
>>> value_observed("O=C1CS(=O)(=O)c2ccccc21")
-11.4
>>> value_observed("Brc1nc2c3ccccc3ncn2c1Br")
45.2

Report growth inhibition for each item below.
1. COc1cc(C)cc2c(-c3c(OC(C)=O)cc(OC(C)=O)c4c3C[C@H](C)N(C(C)=O)[C@H]4C)cc(-c3cc(-c4c(OC(C)=O)cc(OC(C)=O)c5c4C[C@H](C)N(C(C)=O)[C@H]5C)c4cc(C)cc(OC)c4c3O)c(O)c12
2. c1ccc2c(c1)ccc1c3ccccc3ncc21
3. CCCCOC(=O)c1c2nc3c(C(=O)OCCCC)ccc(C)c3oc-2c(C)c(=O)c1NC(C)=O
4. CC(C)CC(NC(=O)C(N)CSSCC(N)C(=O)NC(CC(C)C)C(=O)O)C(=O)O (stereo not drawn) (I: H-Cys-Leu-OH / II: H-Cys-Leu-OH; disulfide I:1-II:1; configuration not given here)

1: 41; 2: 62.8; 3: 19.4; 4: -10.6

Provide each entry's growth inhibition from the list below.
1. CSc1ncc(C=O)n1Cc1ccccc1
2. CCc1ccccc1NC(=O)C(=O)C1C(=O)N(c2ccccc2)N=C1N (centres undefined)
3. CSC1C(OC(=O)c2ccccc2)C(COC(=O)c2ccccc2)OC1n1cnc2ncnc(NC(=O)c3ccccc3)c21 (centres undefined)
4. CCC(=O)NN(C(C)=O)c1ccccc1
5. O=C(O)C(Cc1ccc(O)cc1)NC(=O)C(CSC(c1ccccc1)(c1ccccc1)c1ccccc1)NC(c1ccccc1)(c1ccccc1)c1ccccc1 (centres undefined)

-4.35
-10.2
45.4
10.3
3.75

Give growth inhibition for each of the items listed below.
1. CC/C(C)=C1\OC(=O)C(C)C(O)C(Cc2cccnc2)NC(=O)C(NC(=O)c2ncccc2O)C(C)OC1=O (centres undefined)
2. O=C1CCCc2ccc3c(c21)CC1(Cc2ccccc2C1)C3
3. O=C(c1ccc(Cl)cc1)C1C(c2ccccc2)C1[N+](=O)[O-] (centres undefined)

1. -4.45
2. -7.05
3. 11.2

Could I get growth inhibition for every one of these entries?
1. CCOC(=O)COc1c(C)cccc1C
2. CC1(C)SC(C)(C)C1=O
3. CN1CN(C(=O)N2CN(C)C(=O)N(C)C2)CN(C)C1=O
4. CC1=CC(=O)N(n2c(-c3ccccc3)n[nH]c2=O)C1=O
5. CSc1nc2c(nnn2C2OCC(O)C(O)C2O)c(=O)[nH]1 (centres undefined)
6. CSc1ccc(NC(=O)Nc2cccc(C(C)=O)c2)cc1
7. Clc1ccc(/C=C/c2ccc3ccccc3n2)cc1

1. 17.6
2. -13.6
3. -10.8
4. -26.9
5. -10.7
6. 2.15
7. -2.65
